Test system: MDA-MB-468 breast
EXPERIMENT: NCI-60 one-dose screen, 48 h
STATED CONDITIONS: 10 µM unless noted
Compounds without any hit were thinned out: in the full panel of roughly 83,000, 20% have a hit. Calls of active or inactive are those of the source. The calls were made as follows: active = growth percent below 10; inactive = the rest.
A correct response names exactly one class from active, inactive

### Prompt Recorded test call requested for Cc1cnc(C(=O)Nc2nc3ccc(S(=O)(=O)Nc4ccc(C(C)(C)C)cc4)cc3[nH]2)cn1
### Response active

### Prompt Recorded test call requested for C=CCn1c(SCC(=O)NCc2cc(C)c(O)c(C)c2)nc2ccc(Cl)cc2c1=O
### Response inactive

### Prompt Recorded test call requested for CCc1cc2c(c3ccc(C(=O)CBr)cc13)CCCC2
### Response inactive

### Prompt Recorded test call requested for CCOC(=O)[C@@H]1CCCN(S(=O)(=O)c2ccc(S(=O)(=O)N(CC)CC)c(F)c2)C1
### Response inactive

### Prompt Recorded test call requested for CC1(C)CN(CCNc2nccc(-c3c(-c4cccc(O)c4)nc4sccn34)n2)S(=O)(=O)N1
### Response inactive

### Prompt Recorded test call requested for COc1ccc(/C(C)=C(\c2ccc(OCCN3CCCCCC3)cc2)c2ccc(OC(=O)C3CCCCC3)cc2)cc1
### Response active

### Prompt Recorded test call requested for ClC1c2ccccc2CCc2ccccc21
### Response inactive

### Prompt Recorded test call requested for Cc1ccc(Cc2cnc(NC(=O)c3cc(Br)cs3)s2)cc1
### Response inactive

### Prompt Recorded test call requested for CC(C)c1ccc(C(=O)Nc2sc3c(c2C#N)CCC(=O)C3)cc1
### Response active

### Prompt Recorded test call requested for CCN(CCO)CC(=O)c1cc(Cl)cc(Cl)c1Cl
### Response inactive

----------
System: MDA-MB-468 breast
EXPERIMENT: NCI-60 one-dose screen, 48 h (100 = growth as untreated, 0 = no growth, -100 = all killed)
STATED CONDITIONS: 10 µM unless noted
Compounds without any hit were thinned out: in the full panel of roughly 83,000, 20% have a hit.
Provide the reported growth of each item.
The reply should contain only the number, in %.

### Prompt Name the recorded growth of the item O=C1c2ccccc2CCc2ccccc21 in your answer.
### Response 95.2

### Prompt Name the recorded growth of the item O=C(N/N=C/c1ccc(Oc2ccccc2)cc1)c1cnn2c1NC(c1ccccc1)C2 (stereo unspecified) in your answer.
### Response 30.2

### Prompt Name the recorded growth of the item O=C1/C(=C/c2ccccc2O)N=C2SCCCN12 in your answer.
### Response 99.2

### Prompt Name the recorded growth of the item C#Cc1cccc(Nc2ncnc3cc(OCCOC)c(OCCOC)cc23)c1 in your answer.
### Response -4.78

### Prompt Name the recorded growth of the item CCN(CC)CCCNC(=O)c1ccc(N)cc1 in your answer.
### Response 86.2

### Prompt Name the recorded growth of the item CC(=O)c1cnc(-c2ccccc2)nc1CBr in your answer.
### Response 49.6

### Prompt Name the recorded growth of the item COc1cc(/C=C/C(=O)Nc2cccnc2Nc2cc(OC)c(OC)c(OC)c2)cc(OC)c1OC in your answer.
### Response 99.8

### Prompt Name the recorded growth of the item CC(=O)Oc1c2c(nc3c1c1ccccc1n3Cc1ccccc1)-c1ccccc1C2 in your answer.
### Response 92.2

### Prompt Name the recorded growth of the item C/C(CC1(O)C(=O)Nc2ccccc21)=N\O (stereo unspecified) in your answer.
### Response 92

### Prompt Name the recorded growth of the item C=C(C)C1CCC(=C)C2CCC3(C)OC12/C=C(/COC(C)=O)CCC3O (stereo unspecified) in your answer.
### Response 115

### Prompt Name the recorded growth of the item Fc1[nH]nc2ccc([C@@H]3Nc4ccc5[nH]ncc5c4[C@H]4C5CCC(C5)[C@@H]34)cc12 (stereo partly specified) in your answer.
### Response 16

----------
Tested on: RPMI-8226 leukemia
EXPERIMENT: NCI-60 one-dose screen, 48 h
STATED CONDITIONS: 10 µM
The panel holds about 83,000 compounds, 20% with a hit somewhere; the sample as a whole holds those more often. Activity calls are given as the source filed them. The calls were made as follows: active = growth percent below 10; inactive = the rest.
A correct response names exactly one class from t (active), f (inactive)

### Prompt Recorded test call requested for COc1cc(Nc2nc(O)c(/C=C3\C=Nc4ccccc43)s2)cc(OC)c1OC
### Response t

### Prompt Recorded test call requested for COc1cccc(C(=O)CSc2nc(-c3ccc(OCc4ccccc4)c(OC)c3)c(C#N)c(=O)[nH]2)c1
### Response f

### Prompt Recorded test call requested for O=C(c1ccc(F)cc1)C(c1c[nH]c2ccccc12)c1c[nH]c2ccccc12
### Response f

### Prompt Recorded test call requested for O=C1NC2C=CC=CC2/C1=C1/SC(=S)N(C2CC(=O)N(c3ccc(Br)cc3)C2=O)C1=O (centres undefined)
### Response f

### Prompt Recorded test call requested for COc1ccc(NCc2cn(-c3ccc(C(=O)O)cc3)nc2-c2ccc(F)cc2)cc1C(F)(F)F
### Response f

### Prompt Recorded test call requested for Cc1cc(N=C2NC(=O)S/C2=C\c2ccc(F)cc2)n[nH]1
### Response t

### Prompt Recorded test call requested for COc1ccc(C2c3sc4ccc(C)cc4c3Oc3nc(N)nc(N)c32)cc1 (centres undefined)
### Response f

### Prompt Recorded test call requested for C#C[C@]1(O)CC[C@H]2[C@@H]3CC=C4c5sc(Nc6cc(C)cc(C)n6)nc5CC[C@]4(C)[C@H]3CC[C@@]21C
### Response t

### Prompt Recorded test call requested for COc1ccc(Cn2cc(C#N)c(N)c2C(C)=O)c(OC)c1
### Response f

----------
Tested on: MDA-MB-468 breast
EXPERIMENT: NCI-60 one-dose screen, 48 h
STATED CONDITIONS: 10 µM unless noted
Protocol: Growth inhibition of the MDA-MB-468 human Breast tumor cell line is measured as a screen for anti-cancer activity. Cells are grown in 96 well plates and exposed to the test compound for 48 hours. Compounds are tested at a single concentration, which is 10^-5 M for most compounds. The reported endpoint is percent growth (GI% or GIPRCNT), where numbers from 0 - 100% represent growth inhibition, and numbers from -100% - 0 represent cell death. […]
This is part of a sample that, as a whole, favours compounds with a hit. Of some 83,000 tested, about 20% had one in any assay. Active and inactive are the calls of the source. The calls were made as follows: active = growth percent below 10; inactive = the rest.
A correct response names exactly one class from active, inactive

### Prompt Recorded test call requested for O=[N+]([O-])c1cc(Br)cc2c1[nH]c1ccc(Br)cc12
### Response inactive

### Prompt Recorded test call requested for COc1ccc(/C=C2/CN(CCC#N)C/C(=C\c3ccc(OC)cc3)C2=O)cc1
### Response active

### Prompt Recorded test call requested for O=C(c1ccc(F)cc1)C(c1c[nH]c2ccccc12)c1c[nH]c2ccccc12
### Response inactive

### Prompt Recorded test call requested for COc1cccc(-c2nc3sccn3c2-c2ccnc(NCCCNS(=O)(=O)c3ccccc3)n2)c1
### Response inactive

### Prompt Recorded test call requested for CC/C=C\C[C@H](O)C/C=C1/C(=O)C=C[C@@H]1C/C=C\CCCC(=O)OC
### Response active

### Prompt Recorded test call requested for CC(C)(C)CC(C)(C)n1nnnc1C(NC12CC3CC(CC(C3)C1)C2)c1ccccc1 (stereo not given)
### Response inactive

### Prompt Recorded test call requested for COc1cc2nc(N3CCCC3)nc(NCC3CCCCC3)c2cc1OC
### Response active

### Prompt Recorded test call requested for Cc1nc2ccccc2c(/C=C/c2ccc(F)cc2)c1C(=O)/C=C/c1ccccc1
### Response inactive

### Prompt Recorded test call requested for CC1CCN(C(=S)SCC(=O)NC(=O)c2ccccc2)CC1
### Response inactive

### Prompt Recorded test call requested for COc1cc(/C=C/c2nc(Nc3ccc(S(=O)(=O)Nc4cc(C)on4)cc3)c3ccccc3n2)ccc1O
### Response active

----------
Test system: MDA-MB-468 breast
EXPERIMENT: NCI-60 one-dose screen, 48 h (100 = growth as untreated, 0 = no growth, -100 = all killed)
STATED CONDITIONS: 10 µM unless noted
This is part of a sample that, as a whole, favours compounds with a hit. Of some 83,000 tested, about 20% had one in any assay. Activity calls are given as the source filed them. Rule for the calls: active = growth percent below 10; inactive = the rest.
MEASURED PROPERTY: growth

### Prompt Name the recorded growth of the item Nc1nn(C(=O)Nc2ccc(Cc3ccccc3)cc2)c2ccc(Cl)cc12 in your answer.
### Response 72.3% (inactive)

### Prompt Name the recorded growth of the item CCOCC[P+](c1ccccc1)(c1ccccc1)c1ccccc1 in your answer.
### Response 2.17% (active)

### Prompt Name the recorded growth of the item CC(C)CC1NC(=O)C(CCCN)NC(=O)C(C(C)C)NC(=O)C2CCCN2C(=O)C(Cc2ccccc2)NC(=O)C(CC(C)C)NC(=O)C(CCCN)NC(=O)C(C(C)C)NC(=O)C2CCCN2C(=O)C(Cc2ccccc2)NC1=O (stereo not given) in your answer.
### Response -78.1% (active)

### Prompt Name the recorded growth of the item O=C1[C@H]2Cc3c([nH]c4ccccc34)[C@@H](c3ccc(Br)cc3)N2C(=O)CN1C1CCN(Cc2ccccc2)CC1 in your answer.
### Response -4.01% (active)

### Prompt Name the recorded growth of the item CCn1c(SCC(=O)N/N=C(\C)c2ccc(Cl)cc2)nc2c1c(=O)n(C)c(=O)n2C in your answer.
### Response 96.6% (inactive)

### Prompt Name the recorded growth of the item O=C(NCCN1CCC(O)CC1)c1cc2c(o1)C(=O)c1ccccc1C2=O in your answer.
### Response -85.8% (active)

### Prompt Name the recorded growth of the item N#Cc1nc(-c2ccccc2)oc1N1CCC(CO)C1 (stereo not given) in your answer.
### Response 92.5% (inactive)

### Prompt Name the recorded growth of the item BrCc1cccc(C[P+](c2ccccc2)(c2ccccc2)c2ccccc2)c1 in your answer.
### Response -12.4% (active)

### Prompt Name the recorded growth of the item COc1ccc(C(=O)/C=C/c2cc(-c3ccc4c(c3)OCO4)n[nH]2)cc1OC in your answer.
### Response 28.2% (inactive)

### Prompt Name the recorded growth of the item CCCCC(CCc1ccccn1)C(=O)c1ccccc1 (stereo not given) in your answer.
### Response 109% (inactive)

### Prompt Name the recorded growth of the item CCOc1ccccc1Cn1ccnc1CCc1c(Cl)c(O)cc(O)c1C(=O)OC in your answer.
### Response 106% (inactive)

### Prompt Name the recorded growth of the item Cc1ccc(-c2nc3nc(-c4ccc(Cl)cc4)nc(N4CCCNCC4)c3o2)cc1 in your answer.
### Response -54.2% (active)

### Prompt Name the recorded growth of the item Clc1ccc(-c2nnc(-c3ccco3)o2)cc1 in your answer.
### Response 100% (inactive)

### Prompt Name the recorded growth of the item CCCNC(=O)c1cn2ncnc(Nc3cc(C(=O)NC4CC4)ccc3C)c2c1C in your answer.
### Response 73% (inactive)

### Prompt Name the recorded growth of the item COc1cc2nc(Cl)nc(Nc3cccc(C4=Nc5c(N)nc(N)nc5NC(c5ccc(F)cc5)C4)c3)c2cc1OC (stereo not given) in your answer.
### Response 45.8% (inactive)

### Prompt Name the recorded growth of the item Cc1cccc(-c2cc(O)c(C(=O)N3CCOCC3)s2)c1 in your answer.
### Response 14.1% (inactive)

### Prompt Name the recorded growth of the item CC1CCCC(CC(N)=O)CC1 (stereo not given) in your answer.
### Response 97.9% (inactive)

### Prompt Name the recorded growth of the item O=C(Nc1ccccc1)Nc1ccc2cc3ccc(NC(=O)Nc4ccccc4)cc3nc2c1 in your answer.
### Response -57.8% (active)

### Prompt Name the recorded growth of the item O=C(CN1C=NC2C(N3CCOCC3)=NC=NC21)c1ccc(Br)cc1 (stereo not given) in your answer.
### Response 99% (inactive)

### Prompt Name the recorded growth of the item COC(=O)c1cccc2c1N(C)c1c(cccc1C(=O)OC)CC2 in your answer.
### Response 124% (inactive)
